Molecular target: T1, human CD4 on cells (SKW3 cells; human PBMCs) (human, UniProt P01730 26-458)
T1 construct: whole, on cells; SKW3 CD4 knockout cells served as the negative cell line for the WT vs KO ratios; also called hCD4; SKW3 WT
Test: FACS primary screen, non-clonal hybridoma supernatant; SKW3 WT vs SKW3 CD4 KO cells, anti-mFc-647
Please go through the items and note down their SKW3 WT vs KO anti-mFc-647.
One number for each entry, in fold.

# count of solved cases: 2
BINDER: 75110_01C18A (antibody, V domains shown, Tested as non-clonal hybridoma supernatant (AlivaMab Mouse Kappa), detected with anti-mouse Fc and anti-human kappa) VH: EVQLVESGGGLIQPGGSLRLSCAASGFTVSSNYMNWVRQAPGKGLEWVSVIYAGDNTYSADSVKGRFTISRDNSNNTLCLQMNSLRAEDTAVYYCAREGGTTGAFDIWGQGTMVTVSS VL: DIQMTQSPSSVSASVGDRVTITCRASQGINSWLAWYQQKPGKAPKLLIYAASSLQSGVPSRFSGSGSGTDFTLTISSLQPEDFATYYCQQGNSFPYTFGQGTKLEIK
SKW3 WT vs KO anti-mFc-647 (fold): 14.7

BINDER: 75110_07J24A (antibody, V domains shown, Tested as non-clonal hybridoma supernatant (AlivaMab Mouse Kappa), detected with anti-mouse Fc and anti-human kappa) VH: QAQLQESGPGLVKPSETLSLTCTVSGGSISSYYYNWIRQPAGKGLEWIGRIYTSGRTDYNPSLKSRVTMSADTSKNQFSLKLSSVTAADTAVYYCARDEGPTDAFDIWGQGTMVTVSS VL: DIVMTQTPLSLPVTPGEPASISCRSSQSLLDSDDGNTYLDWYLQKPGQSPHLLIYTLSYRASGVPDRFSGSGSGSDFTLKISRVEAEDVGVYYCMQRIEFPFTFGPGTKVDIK
SKW3 WT vs KO anti-mFc-647 (fold): 6.2

Quick one: SKW3 WT vs KO anti-mFc-647 for 75110_05E05A (antibody, V domains shown, Tested as non-clonal hybridoma supernatant (AlivaMab Mouse Kappa), detected with anti-mouse Fc and anti-human kappa) VH: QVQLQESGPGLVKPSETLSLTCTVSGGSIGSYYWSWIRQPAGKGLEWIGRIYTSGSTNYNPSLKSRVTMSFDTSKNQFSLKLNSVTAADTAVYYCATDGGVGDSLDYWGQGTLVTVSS VL: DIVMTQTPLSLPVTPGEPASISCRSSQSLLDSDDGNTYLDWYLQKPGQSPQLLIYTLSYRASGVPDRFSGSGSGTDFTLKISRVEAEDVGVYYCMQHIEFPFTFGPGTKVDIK ?
9.4
